test: Pharmacokinetics in rats (jugular vein cannula, plasma LC-MS)
Type: in vivo, Rat
experimental_conditions: female, rat, plasma, po, 6 mg/kg, female rat; 6 mg/kg as 3 mg/ml solution in 6% DMSO, 6% cremophor, 88% saline (footnote 6); read-out: FR T1/2 hr (converted)
Protocol: Rats (male or female, 200-225 g) were prepared with indwelling jugular vein cannula as described by Harms et al., Applied Physiol. 36:391-398 (1974), and allowed to recover overnight with free access to the standard vivarium chow and water. […] The samples were analyzed by LC-MS using 30-90% gradient of ACN in 50 mM ammonium acetate. The pharmacokinetic parameters were calculated using WinNonlin software (Scientific Consulting Inc.). […]

| compound | half-life |
| --- | --- |
| COc1nc(N(C)C)nc(OC)c1NC(=O)c1ccc(Cc2cc3c(cc2C)C(C)(C)CCC3(C)C)o1 [Example B2] | 5.7 h |
